Ref: paper PMC9482650

# assayed.system: T1, NHERF3_4, Q5T2W1
# T1 sequence (Q5T2W1 373-468, limits assumed, looked up): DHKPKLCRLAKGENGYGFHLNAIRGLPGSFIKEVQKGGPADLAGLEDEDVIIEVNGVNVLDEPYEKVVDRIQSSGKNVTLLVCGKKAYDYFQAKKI
# test.method.notes: holdup assay
# Set-up: key: below the threshold = too weak to quantify, mostly under pKd 3.1 to 4
# study.conditions: plain residues with an end cap or a label only (N-terminal biotin on a linker: ado-ado)

[
  {
    "binder": "NIAESLESLV [PTPRZ1, P23471]",
    "pKd": "below the threshold"
  },
  {
    "binder": "SPDRDRESIV [SCN5A, Q14524]",
    "pKd": "below the threshold"
  },
  {
    "binder": "EPQYQPGENL [SRC, P12931]",
    "pKd": "below the threshold"
  },
  {
    "binder": "DGVNEKVSCV [HTR2A, P28223]",
    "pKd": "below the threshold"
  },
  {
    "binder": "TRKRSGEAAV [PFKM, P08237]",
    "pKd": "below the threshold"
  },
  {
    "binder": "AAVENKVTDL [PLXNB1, O43157]",
    "pKd": 3.47
  },
  {
    "binder": "RFQQRMQTHV [KIRREL1, Q96J84]",
    "pKd": "below the threshold"
  },
  {
    "binder": "ARSAAASNYV [CLDN4, O14493]",
    "pKd": "below the threshold"
  },
  {
    "binder": "SVTSERETNI [SLC16A7, O60669]",
    "pKd": "below the threshold"
  },
  {
    "binder": "ARESQKVSHV [FAM110B, Q8TC76]",
    "pKd": "below the threshold"
  },
  {
    "binder": "SLNANEVEWF [RNF130, Q86XS8]",
    "pKd": "below the threshold"
  },
  {
    "binder": "GEDRSPPTAL [MKNK1, Q9BUB5]",
    "pKd": 3.7
  },
  {
    "binder": "EKCGKEFSEF [PRKACA, P17612]",
    "pKd": "below the threshold"
  },
  {
    "binder": "KPGKGSETVV [FZD4, Q9ULV1]",
    "pKd": "below the threshold"
  },
  {
    "binder": "PSHPRLQTHV [KIRREL2, Q6UWL6]",
    "pKd": "below the threshold"
  },
  {
    "binder": "KSRVAFFEEL [NF2, P35240]",
    "pKd": 3.59
  }
]
